# Test system: SRMS
# MEASUREMENT PARAMETERS: concentration: 1 μM, replicates: in singlicate; n = 1;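 further: KINOMEscan kinase panel screen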
Examples of compounds with documented %Inh follow.
READOUT NAME: %Inh (%)

{"COMPOUND": "CN(C)CCOc1ccc(-c2cc(-c3ccc(Cl)c(O)c3)c(-c3ccncc3)[nH]2)cc1.Cl.Cl", "QUANTITY UNIT": "%", "ASSAY VALUE": 3}
{"COMPOUND": "Cc1ccc(-c2ccc3occ(-c4ccc(S(C)=O)cc4)c3c2)nn1 (stereo not drawn)", "QUANTITY UNIT": "%", "ASSAY VALUE": 0}
{"COMPOUND": "CC(C)c1nc(-c2ccc(F)c(NS(=O)(=O)c3c(F)cccc3F)c2)c(-c2ccnc(Nc3ccc(N4CCOCC4)nc3)n2)s1", "QUANTITY UNIT": "%", "ASSAY VALUE": 99.9}
{"COMPOUND": "CC(C)(C)c1ccc(C(=O)Nc2cn3cc(-n4ccnc4)ccc3n2)cc1", "QUANTITY UNIT": "%", "ASSAY VALUE": 0}
{"COMPOUND": "Cc1cccc(Nc2nc(NCCN)ncc2C(N)=O)c1", "QUANTITY UNIT": "%", "ASSAY VALUE": 0}
{"COMPOUND": "Cc1ccc(Nc2ccnc(Nc3ccc(C)c(F)c3)n2)cc1O.Cl", "QUANTITY UNIT": "%", "ASSAY VALUE": 0}
{"COMPOUND": "Cc1ccc(O)cc1Nc1ccnc2ccc(C(C)(C)C)cc12", "QUANTITY UNIT": "%", "ASSAY VALUE": 19}
{"COMPOUND": "Nc1ncc(-c2cn[nH]c2)c2scc(-c3ccc4c(c3)CCN4C(=O)Cc3ccccc3)c12", "QUANTITY UNIT": "%", "ASSAY VALUE": 59}
{"COMPOUND": "COc1cc(Nc2nccc(N3CCC(NS(=O)(=O)c4ccc(NC(C)=O)cc4)CC3)n2)cc(OC)c1OC", "QUANTITY UNIT": "%", "ASSAY VALUE": 0}
{"COMPOUND": "COC(=O)Nc1nc2ccc(Oc3ccc(CC(=O)Nc4cc(C(F)(F)F)ccc4F)cc3)cc2[nH]1", "QUANTITY UNIT": "%", "ASSAY VALUE": 0}
{"COMPOUND": "Fc1cc(Cl)ccc1Nc1ccnc2cc(-c3ccc(CN4CCOCC4)o3)ccc12", "QUANTITY UNIT": "%", "ASSAY VALUE": 15}
{"COMPOUND": "O=C(Nc1n[nH]c2cc(-c3cccs3)ccc12)C1CC1", "QUANTITY UNIT": "%", "ASSAY VALUE": 1}
{"COMPOUND": "O=C(Nc1n[nH]c2nc(-c3ccccc3O)ccc12)C1CC1", "QUANTITY UNIT": "%", "ASSAY VALUE": 0}
{"COMPOUND": "COc1cccc(NC(=O)NCCNc2ccnc(Nc3ccc(F)cc3)n2)c1", "QUANTITY UNIT": "%", "ASSAY VALUE": 0}
{"COMPOUND": "COc1ccc(C2=C(Nc3cccc(O)c3)C(=O)NC2=O)cc1", "QUANTITY UNIT": "%", "ASSAY VALUE": 0}

====

Examples of compounds with documented %Inh follow.
# Test system: MAP4K4
# MEASUREMENT PARAMETERS: concentration: 1 μM, replicates: in singlicate; n = 1
READOUT NAME: %Inh (%)

{"COMPOUND": "Cc1ccc(NC(=O)c2ccnc(N3CCCCC3)c2)cc1-c1ccc(C(=O)NCC2CC2)cc1 [GW775610]", "ASSAY VALUE": 0}
{"COMPOUND": "COc1cccc(CC(=O)N2CCc3cc(-c4cn(C)c5ncnc(N)c45)ccc32)c1 [GSK2608899]", "ASSAY VALUE": 0}
{"COMPOUND": "NCCC(NC(=O)c1cc(Br)c(-c2ccnc3[nH]ccc23)s1)c1ccccc1.O=C(O)C(F)(F)F.O=C(O)C(F)(F)F (centres unmarked) [GSK1307810]", "ASSAY VALUE": 45}
{"COMPOUND": "N#Cc1cnc2cc(-c3cnc(CNCCN4CCOCC4)s3)ccc2c1Nc1ccc(Oc2ccccc2)cc1 [GW664114]", "ASSAY VALUE": 98.1}
{"COMPOUND": "CC(C)c1nc(-c2ccc(F)c(NS(=O)(=O)c3c(F)cccc3F)c2)c(-c2ccnc(Nc3ccc(N4CCOCC4)nc3)n2)s1 [GSK1804250]", "ASSAY VALUE": 4}
{"COMPOUND": "CN1CCN(Cc2ccc(NC(=O)Nc3ccc(N(C)c4ccnc(Nc5ccc(CS(C)(=O)=O)cc5)n4)cc3)cc2)CC1.Cl [GW827654]", "ASSAY VALUE": 95.8}
{"COMPOUND": "CN(C)CCOc1ccc(-c2cc(-c3ccc(Cl)c(O)c3)c(-c3ccncc3)[nH]2)cc1.Cl.Cl [SB-684387]", "ASSAY VALUE": 22}
{"COMPOUND": "Cc1cccc(Nc2nc(NCCN)ncc2C(N)=O)c1 [GSK1292139]", "ASSAY VALUE": 83}

====

Examples of compounds with documented %Inh follow.
# Test system: RIOK1
# MEASUREMENT PARAMETERS: concentration: 1 μM, replicates: in singlicate; n = 1
READOUT NAME: %Inh (%)

{"COMPOUND": "Nc1ncc(-c2ccc3nccc(-c4ccncc4)c3c2)cc1S(=O)(=O)N1CCCCC1", "READOUT NAME": "%Inh", "ASSAY VALUE": 30}
{"COMPOUND": "COc1ccc(NC(=O)c2ccoc2)cc1-c1ccc(C(=O)NCC2CC2)cc1", "READOUT NAME": "%Inh", "ASSAY VALUE": 8}
{"COMPOUND": "CSc1ccc(NC2=C(c3ccc(Cl)cc3)C(=O)NC2=O)cc1", "READOUT NAME": "%Inh", "ASSAY VALUE": 3}
{"COMPOUND": "CCNc1nccc(-c2c(-c3ccc(F)cc3)ncn2C2CCN(C)CC2)n1", "READOUT NAME": "%Inh", "ASSAY VALUE": 10}
{"COMPOUND": "Cn1cc(-c2cnc(N)c3c(-c4ccc5c(c4)CCN5C(=O)Cc4ccccc4)csc23)cn1", "READOUT NAME": "%Inh", "ASSAY VALUE": 33}
{"COMPOUND": "O=C(Nc1n[nH]c2nc(-c3ccccc3)ccc12)C1CC1", "READOUT NAME": "%Inh", "ASSAY VALUE": 35}
{"COMPOUND": "Fc1cc(Cl)ccc1Nc1ccnc2cc(-c3ccc(CN4CCOCC4)o3)ccc12", "READOUT NAME": "%Inh", "ASSAY VALUE": 30}
{"COMPOUND": "COC(=O)Nc1nc2ccc(Oc3ccc(NC(=O)Nc4cc(C(F)(F)F)ccc4F)cc3)cc2[nH]1.Cl", "READOUT NAME": "%Inh", "ASSAY VALUE": 2}
{"COMPOUND": "COc1cc(Nc2nccc(N3CCC(NC(=O)Nc4ccc5c(c4)OCO5)C3)n2)cc(OC)c1OC (stereo not shown)", "READOUT NAME": "%Inh", "ASSAY VALUE": 79}
{"COMPOUND": "Cc1ccc(Nc2ccnc(Nc3ccc(C)c(F)c3)n2)cc1O.Cl", "READOUT NAME": "%Inh", "ASSAY VALUE": 19}
{"COMPOUND": "COc1cccc(CC(=O)N2CCc3cc(-c4cn(C)c5ncnc(N)c45)ccc32)c1", "READOUT NAME": "%Inh", "ASSAY VALUE": 20}
{"COMPOUND": "CC(C)c1nc(-c2cccc(NS(=O)(=O)c3c(F)cccc3F)c2)c(-c2ccnc(Nc3ccc(N4CCOCC4)nc3)n2)s1.Cl", "READOUT NAME": "%Inh", "ASSAY VALUE": 25}
{"COMPOUND": "CCn1c(-c2nonc2N)nc2c(-c3ccccc3)ncc(OCCCN)c21.O=C(O)C(F)(F)F.O=C(O)C(F)(F)F", "READOUT NAME": "%Inh", "ASSAY VALUE": 7}

====

# System: PIP5K2B
# MEASUREMENT PARAMETERS: concentration: 1 μM, replicates: in singlicate; n = 1
Field 'label' (enum: Satisfied / Not satisfied). Set to Satisfied when %Inh is strictly under 1%; else Not satisfied.

{"COMPOUND": "Nc1ncnc2scc(-c3ccc(NC(=O)Cc4cc(F)ccc4F)cc3)c12.O=C(O)C(F)(F)F [SB-731254-M]", "CAT": "Satisfied"}
{"COMPOUND": "Cn1cc(-c2ccc3c(c2)CCN3C(=O)Cc2cc(F)cc(C(F)(F)F)c2)c2c(N)ncnc21 [GSK2635225]", "CAT": "Not satisfied"}
{"COMPOUND": "N#CC1(c2cccc(C(=O)Nc3cccc(Oc4ccc5nc(NC(=O)C6CC6)sc5n4)c3)c2)CC1", "CAT": "Satisfied"}
{"COMPOUND": "CC(C)(C)c1ccc(C(=O)Nc2cn3cc(-n4ccnc4)ccc3n2)cc1", "CAT": "Satisfied"}
{"COMPOUND": "CN(c1ccc(NC(=O)Nc2cccc(Cl)c2)cc1)c1ccnc(N)n1.Cl [GW830707]", "CAT": "Satisfied"}
{"COMPOUND": "N#Cc1cnc2cc(-c3cnc(CNCCN4CCOCC4)s3)ccc2c1Nc1ccc(Oc2ccccc2)cc1 [GW664114]", "CAT": "Not satisfied"}
{"COMPOUND": "Cn1cc(-c2ccc3c(c2)CCN3C(=O)Cc2cc(F)cc(F)c2F)c2c(N)ncnc21 [GSK2634140]", "CAT": "Not satisfied"}
{"COMPOUND": "CNc1nccc(-c2ccc3c(N)n[nH]c3c2)n1 [GSK2206003]", "CAT": "Not satisfied"}
{"COMPOUND": "COc1cccc2c(-c3ccncc3)c(-c3ccc(F)cc3)nn12 [GW468513]", "CAT": "Not satisfied"}
{"COMPOUND": "Cc1ccc(NC(=O)c2ccnc(N3CCCCC3)c2)cc1-c1ccc(C(=O)NCC2CC2)cc1 [GW775610]", "CAT": "Satisfied"}
{"COMPOUND": "COc1cccc(-c2nc(-c3ccccc3)[nH]c2-c2ccncc2)c1 [SB-610250]", "CAT": "Not satisfied"}

Values compiled from paper PMC5540273.
